# Test system: K98450-129-R-PDC multicell spheroids, viability
# method description: Anticancer human tumor K98450-129-R-PDC patient-derived colon adenocarcinoma cell line growth inhibition [PI3K]
# test context: second compound 3.16 µM; first compound 0.0316 µM; stronger effect = lower value
result type: viability, T/C (%)

compound	target system	result type	recorded number
CC(C)NCC(C(=O)N1CCN(c2ncnc3c2C(C)CC3O)CC1)c1ccc(Cl)cc1 (stereo not given) + Cc1nc(NC(=O)N2CCCC2C(N)=O)sc1-c1ccnc(C(C)(C)C(F)(F)F)c1	K98450-129-R-PDC multicell spheroids, viability	viability, T/C	86.6
CC(C)n1nc(-c2ccc3oc(N)nc3c2)c2c(N)ncnc21 + CC(Nc1ncnc2nc[nH]c12)c1cc2cccc(Cl)c2c(=O)n1-c1ccccc1	K98450-129-R-PDC multicell spheroids, viability	viability, T/C	90.4
C#Cc1c(F)ccc2cc(O)cc(-c3ncc4c(N5CC6CCC(C5)N6)nc(OCC56CCCN5CC(F)C6)nc4c3F)c12 (stereo not given) + Cc1nc(NC(=O)N2CCCC2C(N)=O)sc1-c1ccnc(C(C)(C)C(F)(F)F)c1	K98450-129-R-PDC multicell spheroids, viability	viability, T/C	74.3
CC1(C)CCC(Nc2ncc(C(F)(F)F)c(-c3c[nH]c4c(P(C)(C)=O)c(C#N)ccc34)n2)CN1 (stereo not given) + Cc1nc(NC(=O)N2CCCC2C(N)=O)sc1-c1ccnc(C(C)(C)C(F)(F)F)c1	K98450-129-R-PDC multicell spheroids, viability	viability, T/C	88.1
CC(Cn1ccc(-c2ccc(C#N)c(Cl)c2)n1)NC(=O)c1cc(C(C)O)[nH]n1 (stereo not given) + Cc1nc(NC(=O)N2CCCC2C(N)=O)sc1-c1ccnc(C(C)(C)C(F)(F)F)c1	K98450-129-R-PDC multicell spheroids, viability	viability, T/C	85.1

====

# Test system: K98450-129-R-PDC multicell spheroids, viability
# method description: Anticancer human tumor K98450-129-R-PDC cell line growth inhibition [PI3K];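 note: spheroids exposed to agents for seven days before read-out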
# test context: compound 0.316 µM; stronger effect = lower value

compound	viability, T/C
CC(Nc1ccc2c(c1)OCCn1cc(N3C(=O)OCC3C(F)F)nc1-2)C(N)=O (centres undefined)	105% [middle of 8 runs]
CCCS(=O)(=O)Nc1ccc(F)c(C(=O)c2c[nH]c3ncc(-c4ccc(Cl)cc4)cc23)c1F	116% [middle of 4 runs]
C[C@@H](NC(=O)c1ncnc(N)c1Cl)c1ncc(C(=O)Nc2cc(C(F)(F)F)c(Cl)cn2)s1	119% [middle of 4 runs]
CC(Cn1ccc(-c2ccc(C#N)c(Cl)c2)n1)NC(=O)c1cc(C(C)O)[nH]n1 (centres undefined)	102% [middle of 4 runs]
Cn1nccc1Nc1nccc(-c2ccn(C(CO)c3ccc(Cl)c(F)c3)c(=O)c2)n1 (centres undefined)	103% [middle of 4 runs]
COc1c(OCCCN2CCOCC2)ccc2c3n(c(=NC(=O)c4cnc(N)nc4)nc12)CCN3	65.8% [middle of 8 runs]
CC1(C)CCC(Nc2ncc(C(F)(F)F)c(-c3c[nH]c4c(P(C)(C)=O)c(C#N)ccc34)n2)CN1 (centres undefined)	88.8% [middle of 4 runs]
CCN1CCN(Cc2ccc(Nc3ncc(F)c(-c4cc(F)c5nc(C)n(C(C)C)c5c4)n3)nc2)CC1	86.5% [middle of 4 runs]
CC(Nc1ncnc2nc[nH]c12)c1cc2cccc(Cl)c2c(=O)n1-c1ccccc1 (centres undefined)	103% [middle of 8 runs]

====

# Tested on: K98450-129-R-PDC multicell spheroids, viability
# method description: Anticancer human tumor K98450-129-R-PDC cell line growth inhibition [PI3K]; active = viability on the fitted dose curve at most 10% of control; inactive = the rest;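 note: spheroids exposed to agents for seven days before read-out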
# test context: second compound 0.0316 µM; first compound 10 µM
Classes used: active, inactive

molecule	discrete label
CCCS(=O)(=O)Nc1ccc(F)c(C(=O)c2c[nH]c3ncc(-c4ccc(Cl)cc4)cc23)c1F + Cc1nc(NC(=O)N2CCCC2C(N)=O)sc1-c1ccnc(C(C)(C)C(F)(F)F)c1	active
Cn1ncc(Cl)c1-c1cc(C(=O)NC(CN)Cc2cccc(F)c2)sc1Cl (stereo not given) + CC(Nc1ncnc2nc[nH]c12)c1cc2cccc(Cl)c2c(=O)n1-c1ccccc1	inactive
C#Cc1c(F)ccc2cc(O)cc(-c3ncc4c(N5CC6CCC(C5)N6)nc(OCC56CCCN5CC(F)C6)nc4c3F)c12 (stereo not given) + CC(Nc1ncnc2nc[nH]c12)c1cc2cccc(Cl)c2c(=O)n1-c1ccccc1	inactive
C=CC(=O)N1CCN(c2nc(=O)n(-c3c(C)ccnc3C(C)C)c3nc(-c4c(O)cccc4F)c(F)cc23)C(C)C1 (stereo not given) + Cc1nc(NC(=O)N2CCCC2C(N)=O)sc1-c1ccnc(C(C)(C)C(F)(F)F)c1	inactive
CC(Cn1ccc(-c2ccc(C#N)c(Cl)c2)n1)NC(=O)c1cc(C(C)O)[nH]n1 (stereo not given) + CC(Nc1ccc2c(c1)OCCn1cc(N3C(=O)OCC3C(F)F)nc1-2)C(N)=O	inactive

====

# System: K98450-129-R-PDC multicell spheroids, viability
# method description: Anticancer human tumor K98450-129-R-PDC cell line growth inhibition [PI3K];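 note: spheroids exposed to agents for seven days before read-out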
# test context: second compound 1 µM; first compound 3 µM; stronger effect = lower value
Entries and their viability, T/C
result type: viability, T/C (%)

compound	target system	recorded number
Cn1cnc2c(F)c(Nc3ccc(Br)cc3Cl)c(C(=O)NOCCO)cc21 + COc1c(OCCCN2CCOCC2)ccc2c3n(c(=NC(=O)c4cnc(N)nc4)nc12)CCN3	K98450-129-R-PDC multicell spheroids, viability	4.95
Cn1cnc2c(F)c(Nc3ccc(Br)cc3Cl)c(C(=O)NOCCO)cc21 + CC(Nc1ncnc2nc[nH]c12)c1cc2cccc(Cl)c2c(=O)n1-c1ccccc1	K98450-129-R-PDC multicell spheroids, viability	22.2
Cn1cnc2c(F)c(Nc3ccc(Br)cc3Cl)c(C(=O)NOCCO)cc21 + CC(Nc1ccc2c(c1)OCCn1cc(N3C(=O)OCC3C(F)F)nc1-2)C(N)=O	K98450-129-R-PDC multicell spheroids, viability	9.63
Cn1cnc2c(F)c(Nc3ccc(Br)cc3Cl)c(C(=O)NOCCO)cc21 + Cc1nc(NC(=O)N2CCCC2C(N)=O)sc1-c1ccnc(C(C)(C)C(F)(F)F)c1	K98450-129-R-PDC multicell spheroids, viability	8.14

====

# System: K98450-129-R-PDC multicell spheroids, viability
# method description: Anticancer human tumor K98450-129-R-PDC cell line growth inhibition [PI3K];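 note: spheroids exposed to agents for seven days before read-out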
# test context: second compound 0.316 µM; first compound 0.00316 µM; stronger effect = lower value
Entries and their viability, T/C

compound	viability, T/C, %
CCN1CCN(Cc2ccc(Nc3ncc(F)c(-c4cc(F)c5nc(C)n(C(C)C)c5c4)n3)nc2)CC1 + CC(Nc1ccc2c(c1)OCCn1cc(N3C(=O)OCC3C(F)F)nc1-2)C(N)=O	90.6
CCN1CCN(Cc2ccc(Nc3ncc(F)c(-c4cc(F)c5nc(C)n(C(C)C)c5c4)n3)nc2)CC1 + COc1c(OCCCN2CCOCC2)ccc2c3n(c(=NC(=O)c4cnc(N)nc4)nc12)CCN3	53.1
Cn1ncnc1[C@H]1c2n[nH]c(=O)c3cc(F)cc(c23)N[C@@H]1c1ccc(F)cc1 + Cc1nc(NC(=O)N2CCCC2C(N)=O)sc1-c1ccnc(C(C)(C)C(F)(F)F)c1	99.9
CC(=O)c1c(C)c2cnc(Nc3ccc(N4CCNCC4)cn3)nc2n(C2CCCC2)c1=O + Cc1nc(NC(=O)N2CCCC2C(N)=O)sc1-c1ccnc(C(C)(C)C(F)(F)F)c1	95.3
CCN1CCN(Cc2ccc(Nc3ncc(F)c(-c4cc(F)c5nc(C)n(C(C)C)c5c4)n3)nc2)CC1 + Cc1nc(NC(=O)N2CCCC2C(N)=O)sc1-c1ccnc(C(C)(C)C(F)(F)F)c1	103
Cn1ncnc1[C@H]1c2n[nH]c(=O)c3cc(F)cc(c23)N[C@@H]1c1ccc(F)cc1 + COc1c(OCCCN2CCOCC2)ccc2c3n(c(=NC(=O)c4cnc(N)nc4)nc12)CCN3	64.5
CC(C)n1nc(-c2ccc3oc(N)nc3c2)c2c(N)ncnc21 + Cc1nc(NC(=O)N2CCCC2C(N)=O)sc1-c1ccnc(C(C)(C)C(F)(F)F)c1	89.2
Cn1ncnc1[C@H]1c2n[nH]c(=O)c3cc(F)cc(c23)N[C@@H]1c1ccc(F)cc1 + CC(Nc1ccc2c(c1)OCCn1cc(N3C(=O)OCC3C(F)F)nc1-2)C(N)=O	96
CC(C)n1nc(-c2ccc3oc(N)nc3c2)c2c(N)ncnc21 + CC(Nc1ccc2c(c1)OCCn1cc(N3C(=O)OCC3C(F)F)nc1-2)C(N)=O	99.7
CC(=O)c1c(C)c2cnc(Nc3ccc(N4CCNCC4)cn3)nc2n(C2CCCC2)c1=O + CC(Nc1ccc2c(c1)OCCn1cc(N3C(=O)OCC3C(F)F)nc1-2)C(N)=O	100
CC(=O)c1c(C)c2cnc(Nc3ccc(N4CCNCC4)cn3)nc2n(C2CCCC2)c1=O + COc1c(OCCCN2CCOCC2)ccc2c3n(c(=NC(=O)c4cnc(N)nc4)nc12)CCN3	65.7
